Reference for the values: the OligoGym collection

Target: KRAS
Details: ASO, A431, 1.667 µM
After the bases stand the sugars from the 5' end (letter, count) and the backbone: PS all phosphorothioate, else s phosphorothioate and o phosphodiester by linkage. Methylation of C is not given here. e = 2'-O-(2-methoxyethyl) (MOE); k = constrained ethyl (cEt); d = 2'-deoxy (DNA)
endpoint.name: target mRNA inhibition (%)
Entry rule: numbers only, all in %.

Worked examples follow.
[[record]]
seq_string = "TGTTTATGCAATGTTA (sugars k3 d10 k3, PS)"
unit_annotation = "%"
numeric_readout = 53

[[record]]
seq_string = "GGAGTCTTTATAGTAA (sugars kkddddddddddkeke, PS)"
unit_annotation = "%"
numeric_readout = 57


// switching to the query sequence
Fill in the blank: the reported target mRNA inhibition of GGTGTAACATAGGTTA (sugars k3 d10 k3, PS) is ____. 47

* * *

Target: KRAS
Conditions: ASO, A431, 2 µM
After the bases stand the sugars from the 5' end (letter, count) and the backbone: PS all phosphorothioate, else s phosphorothioate and o phosphodiester by linkage. Methylation of C is not given here. e = 2'-O-(2-methoxyethyl) (MOE); k = constrained ethyl (cEt); d = 2'-deoxy (DNA)
Tag: 1.0 if measured target mRNA inhibition is not below 20%, 0.0 if it is.

Solved entries:
[[record]]
seq_string = "CCAGTGTTAAGAGAAC (sugars kkddddddddddkeke, PS)"
discrete_label = 1.0

[[record]]
seq_string = "AATAGTTTCCATTGCC (sugars k3 d10 k3, PS)"
discrete_label = 1.0

[[record]]
seq_string = "ACGAGAATGGATATTC (sugars k3 d10 k3, PS)"
discrete_label = 1.0

[[record]]
seq_string = "CTTGAAAAGTGTTTAT (sugars k3 d10 k3, PS)"
discrete_label = 0.0


Is the recorded value of target mRNA inhibition equal to or greater than 20% for this sequence? AGGAGTCTTTATAGTA (sugars kkddddddddkekekk, PS) 1.0

Is the recorded value of target mRNA inhibition equal to or greater than 20% for this sequence? GTTTATGCAATGTTAA (sugars kddddddddddkekek, PS) 1.0

Is the recorded value of target mRNA inhibition equal to or greater than 20% for this sequence? TGTTTAAAAAAAAAAT (sugars k3 d10 k3, PS) 0.0

Is the recorded value of target mRNA inhibition equal to or greater than 20% for this sequence? GTTTATGCAATGTTAA (sugars kkddddddddkekekk, PS) 1.0

Is the recorded value of target mRNA inhibition equal to or greater than 20% for this sequence? CTATTAGGAGTCTTTA (sugars k3 d10 k3, PS) 1.0

* * *

Target: IRF5
Settings: ASO, KARPAS-229, 4 µM
After the bases stand the sugars from the 5' end (letter, count) and the backbone: PS all phosphorothioate, else s phosphorothioate and o phosphodiester by linkage. Methylation of C is not given here. e = 2'-O-(2-methoxyethyl) (MOE); k = constrained ethyl (cEt); d = 2'-deoxy (DNA)
Tag: T if measured target mRNA inhibition is not below 20%, F if it is.

Solved entries:
[[record]]
seq_string = "GGTCTGGCCCTTTTGG (sugars kddddddddddkekek, PS)"
discrete_label = "F"

[[record]]
seq_string = "GTTCTTGGACTCTCAA (sugars kkdddddddddkekek, PS)"
discrete_label = "T"

[[record]]
seq_string = "CTTGGTCTTGACCTCC (sugars kkdddddddddkekek, PS)"
discrete_label = "F"

[[record]]
seq_string = "AGGAAGTGAGTCTCAA (sugars kkddddddddddkeke, PS)"
discrete_label = "T"

[[record]]
seq_string = "TTTGCTCTAAACCATT (sugars k3 d10 k3, PS)"
discrete_label = "F"


Is the recorded value of target mRNA inhibition equal to or greater than 20% for this sequence? GTGAGTCTCAAACCAG (sugars k3 d10 k3, PS) F

Is the recorded value of target mRNA inhibition equal to or greater than 20% for this sequence? AGGAGTGAGACGAGCA (sugars kkkdddddddddkeke, PS) T

Is the recorded value of target mRNA inhibition equal to or greater than 20% for this sequence? CAATTTTGCATTCCAT (sugars kkddddddddkekekk, PS) T

Is the recorded value of target mRNA inhibition equal to or greater than 20% for this sequence? ACATCTCCACATCAGT (sugars kkddddddddddkeke, PS) T

* * *

Parameter target mRNA inhibition: see the listing below.
Target: IRF5
Details: ASO, KARPAS-229, 4 µM
After the bases stand the sugars from the 5' end (letter, count) and the backbone: PS all phosphorothioate, else s phosphorothioate and o phosphodiester by linkage. Methylation of C is not given here. e = 2'-O-(2-methoxyethyl) (MOE); k = constrained ethyl (cEt); d = 2'-deoxy (DNA)
Entry rule: numbers only, all in %.

Worked examples follow.
[[record]]
seq_string = "AGGAAGTGAGTCTCAA (sugars kkkddddddddkdkdk, PS)"
endpoint_name = "target mRNA inhibition"
unit_annotation = "%"
numeric_readout = 40

[[record]]
seq_string = "TCACCACTGTGTACCC (sugars kkdddddddddkekek, PS)"
endpoint_name = "target mRNA inhibition"
unit_annotation = "%"
numeric_readout = 0

[[record]]
seq_string = "CTGTCACATCTCCACA (sugars kkddddddddkekekk, PS)"
endpoint_name = "target mRNA inhibition"
unit_annotation = "%"
numeric_readout = 0


// switching to the query sequence
Request - read-out target mRNA inhibition | tested on IRF5 | sequence TGAGTCATGGGCTGAG (sugars kkddddddddddkeke, PS) 0

* * *

Target: MALAT1
Details: ASO, A431, 0.005 µM
After the bases stand the sugars from the 5' end (letter, count) and the backbone: PS all phosphorothioate, else s phosphorothioate and o phosphodiester by linkage. Methylation of C is not given here. k = constrained ethyl (cEt); d = 2'-deoxy (DNA)
endpoint.name: target mRNA inhibition (%)
Entry rule: numbers only, all in %.

[[record]]
seq_string = "TCAGGCGAGCTGAGGC (sugars k3 d10 k3, PS)"
numeric_readout = 7


Fill in the blank: the reported target mRNA inhibition of TTAGTAGCTTTTTGAT (sugars k3 d10 k3, PS) is ____. 39

Fill in the blank: the reported target mRNA inhibition of GGCTTTAAATGACGCA (sugars k3 d10 k3, PS) is ____. 17

Fill in the blank: the reported target mRNA inhibition of TGTAAACCTGTGGTGG (sugars k3 d10 k3, PS) is ____. 48

Fill in the blank: the reported target mRNA inhibition of CTACTGAAGAGCATTG (sugars k3 d10 k3, PS) is ____. 22

Fill in the blank: the reported target mRNA inhibition of ACTTTTAATCATACTC (sugars k3 d10 k3, PS) is ____. 21

Fill in the blank: the reported target mRNA inhibition of ACCGTTTTTCAGCTTC (sugars k3 d10 k3, PS) is ____. -30

* * *

Parameter target mRNA inhibition: see the listing below.
Target: MALAT1
Conditions: ASO, A431, 0.005 µM
After the bases stand the sugars from the 5' end (letter, count) and the backbone: PS all phosphorothioate, else s phosphorothioate and o phosphodiester by linkage. Methylation of C is not given here. k = constrained ethyl (cEt); d = 2'-deoxy (DNA)
Entry rule: numbers only, all in %.

Worked examples follow.
[[record]]
seq_string = "AGTATTATAATAGAGC (sugars k3 d10 k3, PS)"
numeric_readout = 20

[[record]]
seq_string = "AGTCTACAAGTTACAT (sugars k3 d10 k3, PS)"
numeric_readout = 3

[[record]]
seq_string = "CTCTGCAGTTTCTATA (sugars k3 d10 k3, PS)"
numeric_readout = 31

[[record]]
seq_string = "GCAAATCGCCATGGAA (sugars k3 d10 k3, PS)"
numeric_readout = 21

[[record]]
seq_string = "ACCTTGAGTCATTTGC (sugars k3 d10 k3, PS)"
numeric_readout = 66


Request - read-out target mRNA inhibition | tested on MALAT1 | sequence GCCGCCTCTTAAAGCA (sugars k3 d10 k3, PS) -11

Request - read-out target mRNA inhibition | tested on MALAT1 | sequence CCGCCTCTTAAAGCAC (sugars k3 d10 k3, PS) -9

Request - read-out target mRNA inhibition | tested on MALAT1 | sequence CAGGCTATTACCTGAA (sugars k3 d10 k3, PS) -14

* * *

Target: ANGPTL2
Conditions: ASO, 5 µM
After the bases stand the sugars from the 5' end (letter, count) and the backbone: PS all phosphorothioate, else s phosphorothioate and o phosphodiester by linkage. Methylation of C is not given here. l = locked nucleic acid (LNA); d = 2'-deoxy (DNA)
Parameter target mRNA inhibition: see the listing below.
Entry rule: numbers only, all in %.

Worked examples follow.
[[record]]
seq_string = "CCCACAATGAGACTGGT (sugars l2 d13 l2, PS)"
numeric_readout = 30.2

[[record]]
seq_string = "TTATGCACTCGGTTCTCC (sugars l1 d15 l2, PS)"
numeric_readout = 30.6


// switching to the query sequence
Fill in the blank: the reported target mRNA inhibition of GTTGATAGTTTATCTCCT (sugars l1 d14 l3, PS) is ____. 64.1
